System: Staphylococcus aureus SAU.399 (ATCC 43300), Methicillin and Oxacillin Resistant
Format: cell-based
experimentalContext: MHBc with 50 mg/L calcium, 18-20 hours at 37° C.
Method: Compounds according to Formula I were tested for antimicrobial activity against a panel of organisms. […] In all cases the final concentration of dimethyl sulfoxide incubated with cells is less than or equal to 1%. […] Following incubation, (18-20 hours at 37° C. with aeration at 200 rpm) growth was confirmed visually by placing plates over a viewing apparatus (stand with a mirror underneath) and then the optical density (OD600) was measured using a SpectraMax 340PC^384 plate reader. […]
quantityName: Sa399 MIC (µg/mL)
One number for each entry, in µg/mL.

Sample records with Sa399 MIC:
CCCCCCCOc1ccc(-c2ccc(C(=O)N[C@@H](Cc3c[nH]c4ccccc34)C(=O)N[C@H](CC(N)=O)C(=O)N[C@@H](CC(=O)O)C(=O)N[C@@H]3C(=O)NCC(=O)N[C@@H](CCCN)C(=O)N[C@@H](CC(=O)O)C(=O)N[C@H](C)C(=O)N[C@@H](CC(=O)O)C(=O)NCC(=O)N[C@H](CO)C(=O)N[C@@H]([C@H](C)CC(=O)O)C(=O)N[C@@H](CC(=O)c4ccccc4N)C(=O)O[C@@H]3C)cc2)cc1    0.25
CCCCCOc1ccc(/C=C/C(=O)N[C@@H](Cc2c[nH]c3ccccc23)C(=O)N[C@H](CC(N)=O)C(=O)N[C@@H](CC(=O)O)C(=O)N[C@@H]2C(=O)NCC(=O)N[C@@H](CCCN)C(=O)N[C@@H](CC(=O)O)C(=O)N[C@H](C)C(=O)N[C@@H](CC(=O)O)C(=O)NCC(=O)N[C@H](CO)C(=O)N[C@@H]([C@H](C)CC(=O)O)C(=O)N[C@@H](CC(=O)c3ccccc3N)C(=O)O[C@@H]2C)cc1    2
CCCCCCCc1ccc(C(=O)N[C@@H](Cc2c[nH]c3ccccc23)C(=O)N[C@H](CC(N)=O)C(=O)N[C@@H](CC(=O)O)C(=O)N[C@@H]2C(=O)NCC(=O)N[C@@H](CCCN)C(=O)N[C@@H](CC(=O)O)C(=O)N[C@H](C)C(=O)N[C@@H](CC(=O)O)C(=O)NCC(=O)N[C@H](CO)C(=O)N[C@@H]([C@H](C)CC(=O)O)C(=O)N[C@@H](CC(=O)c3ccccc3N)C(=O)O[C@@H]2C)cc1    0.125
CCCCCCOc1ccc(/C=C/C(=O)N[C@@H](Cc2c[nH]c3ccccc23)C(=O)N[C@H](CC(N)=O)C(=O)N[C@@H](CC(=O)O)C(=O)N[C@@H]2C(=O)NCC(=O)N[C@@H](CCCN)C(=O)N[C@@H](CC(=O)O)C(=O)N[C@H](C)C(=O)N[C@@H](CC(=O)O)C(=O)NCC(=O)N[C@H](CO)C(=O)N[C@@H]([C@H](C)CC(=O)O)C(=O)N[C@@H](CC(=O)c3ccccc3N)C(=O)O[C@@H]2C)cc1    1

query: Tell us which Sa399 MIC value is on record for `C[C@H](CC(=O)O)[C@@H]1NC(=O)[C@@H](CO)NC(=O)CNC(=O)[C@H](CC(=O)O)NC(=O)[C@@H](C)NC(=O)[C@H](CC(=O)O)NC(=O)[C@H](CCCN)NC(=O)CNC(=O)[C@@H](NC(=O)[C@H](CC(=O)O)NC(=O)[C@@H](CC(N)=O)NC(=O)[C@H](Cc2c[nH]c3ccccc23)NC(=O)c2ccc(-c3ccc(-c4ccccc4)cc3)cc2)[C@@H](C)OC(=O)[C@H](CC(=O)c2ccccc2N)NC1=O`
result: 0.125
